Value source: ChEMBL document CHEMBL1124211

Listed compounds paired with reported pIC50
- Species: Rattus norvegicus
- protocol.description: Inhibitory activity against rat thoracic aorta contraction induced by 30 nM U-46619
- Type: functional
- recorded.conditions: Rattus norvegicus, Thoracic aorta
pIC50: −log10 of the molar value.
readout.kind: pIC50

* Cc1cccc(S(=O)(=O)N[C@H]2C3CC[C@H](C3)[C@@H]2C/C=C\CCCC(=O)O)c1 | 8.49
* CCc1ccc(S(=O)(=O)N[C@H]2C3CC[C@H](C3)[C@@H]2C/C=C\CCCC(=O)O)cc1 | 8.82
* O=C(O)CCC/C=C\C[C@H]1[C@@H]2CCC(C2)[C@@H]1NS(=O)(=O)Cc1ccccc1 | 6.95
* CS(=O)(=O)N[C@H]1C2CC[C@H](C2)[C@@H]1C/C=C\CCCC(=O)O | 5.80
* O=C(O)CCC/C=C\C[C@H]1[C@@H]2CCC(C2)[C@@H]1NS(=O)(=O)c1ccc(-c2ccccc2)cc1 | 8.01
* O=C(O)CCC/C=C\C[C@H]1[C@@H]2CCC(C2)[C@@H]1NS(=O)(=O)CCc1ccccc1 | 8.47
* O=C(O)CCC/C=C\C[C@H]1[C@@H]2CCC(C2)[C@@H]1NS(=O)(=O)c1cccc2ccccc12 | 8.57
* O=C(O)CCC/C=C\C[C@H]1[C@@H]2CCC(C2)[C@@H]1NS(=O)(=O)CCCc1ccccc1 | 7.96
* Cc1ccccc1S(=O)(=O)N[C@H]1C2CC[C@H](C2)[C@@H]1C/C=C\CCCC(=O)O | 8.43
* O=C(O)CCC/C=C\C[C@@H]1[C@H](CNNC(=O)Nc2ccccc2)[C@H]2CC[C@H]1O2 | 7.84
* Cc1ccc(S(=O)(=O)N[C@H]2C3CC[C@H](C3)[C@@H]2C/C=C\CCCC(=O)O)cc1 | 9.15
* CCCCCCS(=O)(=O)N[C@H]1C2CC[C@H](C2)[C@@H]1C/C=C\CCCC(=O)O | 7.76
* O=C(O)CCC/C=C\C[C@H]1[C@@H]2CCC(C2)[C@@H]1NC(=O)c1ccccc1 | 5.47

* * *

- Species: Oryctolagus cuniculus
- protocol.description: Inhibition of rabbit platelet rich plasma aggregation induced by 500 uM of arachidonic acid
- Assay type: functional
- recorded.conditions: Oryctolagus cuniculus, Plasma
readout.kind: IC50 (nM)

- Cc1ccc(S(=O)(=O)N[C@H]2C3CC[C@H](C3)[C@@H]2C/C=C\CCCC(=O)O)cc1: 500
- O=C(O)CCC/C=C\C[C@H]1[C@@H]2CCC(C2)[C@@H]1NS(=O)(=O)c1ccc(Cl)cc1: 300
- COc1ccc(S(=O)(=O)N[C@H]2C3CC[C@H](C3)[C@@H]2C/C=C\CCCC(=O)O)cc1: 1700
- CCCCCCS(=O)(=O)N[C@H]1C2CC[C@H](C2)[C@@H]1C/C=C\CCCC(=O)O: 13300

* * *

- Species on record: Oryctolagus cuniculus
- protocol.description: Inhibition of rabbit platelet rich plasma aggregation induced by 500 uM of arachidonic acid
- Format: functional
- recorded.conditions: Oryctolagus cuniculus, Plasma
pIC50: −log10 of the molar value.
Listed compounds paired with reported pIC50
readout.kind: pIC50

• CCCCCc1ccc(S(=O)(=O)N[C@H]2C3CC[C@H](C3)[C@@H]2C/C=C\CCCC(=O)O)cc1 = 3.10
• O=C(O)CCC/C=C\C[C@H]1[C@@H]2CCC(C2)[C@@H]1NS(=O)(=O)c1ccc(C(=O)O)cc1 = 3.10
• O=C(O)CCC/C=C\C[C@H]1[C@@H]2CCC(C2)[C@@H]1NS(=O)(=O)CCc1ccccc1 = 5.09
• O=C(O)CCC/C=C\C[C@H]1[C@@H]2CCC(C2)[C@@H]1NS(=O)(=O)c1ccc(O)cc1 = 6.30
• O=C(O)CCC/C=C\C[C@H]1[C@@H]2CCC(C2)[C@@H]1NS(=O)(=O)c1ccc(F)cc1 = 6.22
• CS(=O)(=O)N[C@H]1C2CC[C@H](C2)[C@@H]1C/C=C\CCCC(=O)O = 3.19
• O=C(O)CCC/C=C\C[C@H]1[C@@H]2CCC(C2)[C@@H]1NS(=O)(=O)c1ccc(-c2ccccc2)cc1 = 3.70
• O=C(O)CCC/C=C\C[C@H]1[C@@H]2CCC(C2)[C@@H]1NS(=O)(=O)c1ccc([N+](=O)[O-])cc1 = 5.85
• CN(C)c1ccc(S(=O)(=O)N[C@H]2C3CC[C@H](C3)[C@@H]2C/C=C\CCCC(=O)O)cc1 = 5.15
• O=C(O)CCC/C=C\C[C@H]1[C@@H]2CCC(C2)[C@@H]1NS(=O)(=O)Cc1ccccc1 = 3.95
• O=C(O)CCC/C=C\C[C@@H]1[C@H](CNNC(=O)Nc2ccccc2)[C@H]2CC[C@H]1O2 = 5.05
• O=C(O)CCC/C=C\C[C@H]1[C@@H]2CCC(C2)[C@@H]1NS(=O)(=O)CCCc1ccccc1 = 4.85
• O=C(O)CCC/C=C\C[C@H]1[C@@H]2CCC(C2)[C@@H]1NS(=O)(=O)c1cccc2ccccc12 = 5.96
• Cc1ccccc1S(=O)(=O)N[C@H]1C2CC[C@H](C2)[C@@H]1C/C=C\CCCC(=O)O = 5.21
• Cc1cccc(S(=O)(=O)N[C@H]2C3CC[C@H](C3)[C@@H]2C/C=C\CCCC(=O)O)c1 = 5.77
• CCc1ccc(S(=O)(=O)N[C@H]2C3CC[C@H](C3)[C@@H]2C/C=C\CCCC(=O)O)cc1 = 5.34
